system: Staphylococcus aureus; experiment: Antibacterial activity against methicillin-resistant Staphylococcus aureus after 24 hrs by microbroth dilution method; type: functional
readout.kind: MIC

COc1cc(/C=C/c2cc(/C=C/c3ccc(OCC(=O)N[C@H](C)c4ccccc4)c(OC)c3)[nH]n2)ccc1OCC(=O)N[C@H](C)c1ccccc1 10 to 20 µg/mL
COc1cc(/C=C/c2cc(/C=C/c3ccc(OCC(=O)N[C@@H](C)c4ccccc4)c(OC)c3)[nH]n2)ccc1OCC(=O)N[C@@H](C)c1ccccc1 10 to 20 µg/mL
COc1cc(/C=C/c2cc(/C=C/c3ccc(OCC(=O)Nc4cccc(C(F)(F)F)c4)c(OC)c3)[nH]n2)ccc1OCC(=O)Nc1cccc(C(F)(F)F)c1 10 to 20 µg/mL

Measured MIC of "COc1cc(/C=C/c2cc(/C=C/c3ccc(OCC(=O)Nc4cccc(C(C)=O)c4)c(OC)c3)[nH]n2)ccc1OCC(=O)Nc1cccc(C(C)=O)c1" : 10 to 20 µg/mL

Measured MIC of "COc1cc(/C=C/c2cc(/C=C/c3ccc(OCC(=O)Nc4cc(Cl)cc(Cl)c4)c(OC)c3)[nH]n2)ccc1OCC(=O)Nc1cc(Cl)cc(Cl)c1" : 10 to 20 µg/mL
